# EXPERIMENTAL_PROTOCOL: Bioavailability in human
# Type: ADME, organism-based
# STUDY_CONDITIONS: in vivo

CHEMICAL_SMILES: COCc1c(Cl)ccc2c1CC[C@H]2c1ncc[nH]1
UNITS_TEXT: %
bioavailability: 65

----------
# Test system: MDCK
# EXPERIMENTAL_PROTOCOL: Apparent permeability from basolateral to apical side of MDCK cells expressing MDR1
# Type: ADME, cell-based, Canis lupus familiaris
# STUDY_CONDITIONS: dog
Lab note: anything with Papp at or over 30 ×10⁻⁶ cm/s counts as 1; the rest go in -1.

MOLECULE: COCc1cccc2c1CC[C@H]2c1ncc[nH]1
SYSTEM_NAME: MDCK
CLASS: 1
//
MOLECULE: CS(=O)(=O)Nc1c(Cl)ccc2c1CCCC2c1ncc[nH]1 (stereo not given)
SYSTEM_NAME: MDCK
CLASS: -1
//
MOLECULE: c1cc(Cn2ccnn2)c2c(c1)C(c1ncc[nH]1)CC2 (stereo not given)
SYSTEM_NAME: MDCK
CLASS: -1
//
MOLECULE: COCCc1cccc2c1CCC2c1ncc[nH]1 (stereo not given)
SYSTEM_NAME: MDCK
CLASS: 1
//
MOLECULE: Clc1ccc2c(c1-c1cn[nH]c1)CCC2c1ncc[nH]1 (stereo not given)
SYSTEM_NAME: MDCK
CLASS: 1

----------
# SYSTEM_NAME: CYP2C19 (Homo sapiens)
# Sequence (P33261 whole entry): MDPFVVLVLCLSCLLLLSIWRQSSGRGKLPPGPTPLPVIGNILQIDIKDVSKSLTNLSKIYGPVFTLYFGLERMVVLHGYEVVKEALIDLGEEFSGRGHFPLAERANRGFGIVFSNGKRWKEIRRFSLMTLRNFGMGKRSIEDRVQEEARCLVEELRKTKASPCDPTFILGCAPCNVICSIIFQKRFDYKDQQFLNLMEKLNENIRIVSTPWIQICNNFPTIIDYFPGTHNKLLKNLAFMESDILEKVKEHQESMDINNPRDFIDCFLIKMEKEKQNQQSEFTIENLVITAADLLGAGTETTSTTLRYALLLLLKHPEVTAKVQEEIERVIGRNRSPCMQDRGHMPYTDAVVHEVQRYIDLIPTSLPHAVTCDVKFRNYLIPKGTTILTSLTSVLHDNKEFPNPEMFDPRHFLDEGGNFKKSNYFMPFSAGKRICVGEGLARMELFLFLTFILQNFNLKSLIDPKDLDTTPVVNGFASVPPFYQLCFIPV
# EXPERIMENTAL_PROTOCOL: Inhibition of CYP2C19 at 10 uM
# Type: ADME

CHEMICAL_SMILES: Fc1ccn(Cc2c(F)ccc3c2CC[C@H]3c2ncc[nH]2)n1
SYSTEM_NAME: CYP2C19 (Homo sapiens)
inhibition at 10 µM: < 50%

----------
# EXPERIMENTAL_PROTOCOL: Distribution coefficient, log D at pH 7.4
# Assay type: physicochemical
# STUDY_CONDITIONS: octanol/water
Mark rule not met for logD values under 2, and rule met for everything at or above.

COMPOUND: COCc1cc(F)cc2c1CCC2c1ncc[nH]1 (stereo not given)
CLASS: rule met

COMPOUND: COCc1ccc(F)c2c1CCC2c1ncc[nH]1 (stereo not given)
CLASS: rule not met

COMPOUND: CS(=O)(=O)Cc1cccc2c1CCC2c1ncc[nH]1 (stereo not given)
CLASS: rule not met

COMPOUND: CCOCc1cccc2c1CCC2c1ncc[nH]1 (stereo not given)
CLASS: rule met

COMPOUND: COCc1cccc2c1CC[C@H]2c1ncc[nH]1
CLASS: rule not met

COMPOUND: Clc1ccc2c(c1-c1cn[nH]c1)CCC2c1ncc[nH]1 (stereo not given)
CLASS: rule met

COMPOUND: c1cc(Cn2cccn2)c2c(c1)[C@H](c1ncc[nH]1)CC2
CLASS: rule not met

COMPOUND: COCc1c(Cl)ccc2c1CC[C@H]2c1ncc[nH]1
CLASS: rule met

COMPOUND: Fc1ccn(Cc2cccc3c2CCC3c2ncc[nH]2)n1 (stereo not given)
CLASS: rule met

COMPOUND: Fc1ccn(Cc2c(F)ccc3c2CC[C@H]3c2ncc[nH]2)n1
CLASS: rule met

----------
microsomal CLint overview
# EXPERIMENTAL_PROTOCOL: Metabolic stability in human liver microsomes assessed as intrinsic clearance
# Assay type: ADME, Microsome

MOLECULE: COCc1c(Cl)ccc2c1CC[C@H]2c1ncc[nH]1
microsomal CLint, µL/min/mg: 30
--
MOLECULE: FC(F)(F)CNCc1cccc2c1CCC2c1ncc[nH]1 (stereo unspecified)
microsomal CLint, µL/min/mg: 26
--
MOLECULE: COCc1ccc(F)c2c1CCC2c1ncc[nH]1 (stereo unspecified)
microsomal CLint, µL/min/mg: 17
--
MOLECULE: Fc1ccn(Cc2c(F)ccc3c2CC[C@H]3c2ncc[nH]2)n1
microsomal CLint, µL/min/mg: 24
--
MOLECULE: Fc1ccn(Cc2cccc3c2CCC3c2ncc[nH]2)n1 (stereo unspecified)
microsomal CLint, µL/min/mg: 30
--
MOLECULE: Clc1ccc2c(c1-c1cn[nH]c1)CCC2c1ncc[nH]1 (stereo unspecified)
microsomal CLint, µL/min/mg: 24
